test system: S. aureus Newman; test: Bliss interaction score (quartile over a dose matrix) (fitness difference); higher = more antagonism (negative = synergy);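 note: first quartile when negative (synergy) and third quartile when positive (antagonism)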
result_type: Bliss interaction score

Field: Bliss interaction score. Fill in for each record below.
1. CC(=O)O[C@H]1C[C@@]2(C)[C@@H](C[C@@H](O)[C@H]3[C@@]4(C)CC[C@@H](O)[C@@H](C)[C@@H]4CC[C@@]32C)/C1=C(\CCC=C(C)C)C(=O)O [Fusidic acid] + CC1=C\[C@@H](O)CC(=O)Cc2nc(co2)C(=O)N2CCC=C2C(=O)O[C@H](C(C)C)[C@H](C)/C=C/C(=O)NC\C=C\1 [Virginiamycin M1]
2. N[C@@H]1CONC1=O [CycloserineD] + Cc1cc(NS(=O)(=O)c2ccc(N)cc2)no1 [Sulfamethoxazol]
3. N[C@@H]1CONC1=O [CycloserineD] + C[C@H]1COc2c(N3CCN(C)CC3)c(F)cc3c(=O)c(C(=O)O)cn1c23 [Levofloxacin]
4. C/C(=C\C(=O)OCCCCCCCCC(=O)O)C[C@@H]1OC[C@H](C[C@@H]2O[C@H]2[C@@H](C)[C@H](C)O)[C@@H](O)[C@H]1O [Pseudomonic acid] + CN[C@@H]1[C@H](O)[C@H](NC)[C@H]2O[C@@]3(O)C(=O)C[C@@H](C)O[C@H]3O[C@@H]2[C@H]1O [Spectinomycin]
5. C[C@@H](O)[C@H]1C(=O)N2C(C(=O)O)=C(SCCNC=N)C[C@H]12 [Imipenem] + CC1(C)S[C@@H]2[C@H](NC(=O)Cc3ccccc3)C(=O)N2[C@H]1C(=O)O [PenicillinG]
6. CC(=O)OC[C@H]1O[C@@H]([S-])[C@H](OC(C)=O)[C@@H](OC(C)=O)[C@@H]1OC(C)=O.CCP(CC)CC.[Au+] [Auranofin] + CN(N=O)C(=O)N[C@@H](C=O)[C@@H](O)[C@H](O)[C@H](O)CO [Streptozotocin]
7. O=C1CN(/N=C/c2ccc([N+](=O)[O-])o2)C(=O)N1 [Nitrofurantoin] + CC[C@H]1OC(=O)[C@H](C)C(=O)[C@H](C)[C@@H](O[C@@H]2O[C@H](C)C[C@H](N(C)C)[C@H]2O)[C@](C)(OC)C[C@@H](C)C(=O)[C@H](C)[C@H]2N(CCCCn3cnc(-c4cccnc4)c3)C(=O)O[C@]12C [Telithromycin]
8. CC[C@H]1OC(=O)[C@H](C)[C@@H](O[C@H]2C[C@@](C)(OC)[C@@H](O)[C@H](C)O2)[C@H](C)[C@@H](O[C@@H]2O[C@H](C)C[C@H](N(C)C)[C@H]2O)[C@](C)(OC)C[C@@H](C)C(=O)[C@H](C)[C@@H](O)[C@]1(C)O [Clarithromycin] + COc1c(N2C[C@@H]3CCCN[C@@H]3C2)c(F)cc2c(=O)c(C(=O)O)cn(C3CC3)c12 [Moxifloxacin]

// result
[-0.044, 0.0449, -0.131, -0.0301, -0.198, 0.0723, -0.0641, 0.123]
